System: EJM (Plasma Cell Myeloma)
Assay: combination Emax (second highest fraction inhibited in the dose matrix, 72 h); higher = more inhibition; extreme values may be limits of the assay
Listing of entries alongside the reported combination Emax.
Quick one: just the number, no unit, thanks!

Provide one value: measured combination Emax of Cc1cc2ncnn2cc1Nc1ncc2c(n1)n(C1CCOCC1)c(=O)n2C [AZD7648] + CCN(CCO)CCCOc1ccc2c(Nc3cc(CC(=O)Nc4cccc(F)c4)[nH]n3)ncnc2c1 [AZD2811] (first compound max 10 µM, 7x7, partner max 1 µM)
0.242

Provide one value: measured combination Emax of NC1(C(=O)N[C@@H](CCO)c2ccc(Cl)cc2)CCN(c2ncnc3[nH]ccc23)CC1 [Capivasertib] + COc1nnc2ccc(N3CCC(c4ccc(OCCN5CCN(C)C(=O)[C@H]5C)cc4)CC3)nn12 [AZD5153] (first compound max 10 µM, 7x7, partner max 1 µM)
0.658

Provide one value: measured combination Emax of CN(CCO)CC[C@H](CSc1ccccc1)Nc1ccc(S(=O)(=O)NC(=O)c2ccc(N3CCC([C@@H](O)c4ccccc4-c4ccc(Cl)cc4)CC3)cc2)cc1S(=O)(=O)C(F)(F)F [AZD4320] + Cn1cnc2c(F)c(Nc3ccc(Br)cc3Cl)c(C(=O)NOCCO)cc21 [Selumetinib] (first compound max 1 µM, 7x7, partner max 3 µM)
0.488

---

Test system: Mo-T (Other Blood Carcinomas);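 note: after 72 h of two-drug dosing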
Assay: Bliss excess, mean over the matrix (fraction); higher = more synergy
Cut-off -0.01 on Bliss excess, inclusive. At or above means true; below means false.

As a guide, the following entries are already answered.
Could you tell me if the measured Bliss excess of CN(CCO)CC[C@H](CSc1ccccc1)Nc1ccc(S(=O)(=O)NC(=O)c2ccc(N3CCC([C@@H](O)c4ccccc4-c4ccc(Cl)cc4)CC3)cc2)cc1S(=O)(=O)C(F)(F)F [AZD4320] + C1CN(CCC1(C(=O)N[C@@H](CCO)C2=CC=C(C=C2)Cl)N)C3=NC=NC4=C3C=CN4 [Capivasertib] (first compound max 1 µM, 7x7, partner max 3 µM) reaches -0.01 or more?
false

Could you tell me if the measured Bliss excess of CC1(C)CCC(CN2CCN(c3ccc(C(=O)NS(=O)(=O)c4ccc(NCC5CCOCC5)c([N+](=O)[O-])c4)c(Oc4cnc5[nH]ccc5c4)c3)CC2)=C(c2ccc(Cl)cc2)C1 [Venetoclax] + C[C@@H](Nc1cc(F)cc(F)c1)c1cc(C(=O)N(C)C)cc2c(=O)cc(N3CCOCC3)oc12 [AZD8186] (first compound max 1 µM, 7x7, partner max 3 µM) reaches -0.01 or more?
true

Could you tell me if the measured Bliss excess of C[C@@H](c1ccc2nccn2c1)n1nnc2ncc(-c3cnn(C)c3)nc21 [Savolitinib] + CC1(C)CCC(CN2CCN(c3ccc(C(=O)NS(=O)(=O)c4ccc(NCC5CCOCC5)c([N+](=O)[O-])c4)c(Oc4cnc5[nH]ccc5c4)c3)CC2)=C(c2ccc(Cl)cc2)C1 [Venetoclax] (first compound max 1 µM, 7x7, partner max 1 µM) reaches -0.01 or more?
false

Could you tell me if the measured Bliss excess of Cc1nc(-c2cn3c(n2)-c2ccc(-c4cnn(C(C)(C)C(N)=O)c4)cc2OCC3)n(C(C)C)n1 [Taselisib] + O=C(Nc1ccc2[nH]nc(-c3ccncc3)c2c1)[C@@H]1CCN(CC(=O)N2CCN(c3ccc(-c4ncccn4)cc3)CC2)C1 [SCH772984] (first compound max 10 µM, 7x7, partner max 5 µM) reaches -0.01 or more?
true

Could you tell me if the measured Bliss excess of CS(=O)(=O)CCNCc1ccc(-c2ccc3ncnc(Nc4ccc(OCc5cccc(F)c5)c(Cl)c4)c3c2)o1 [Lapatinib] + C[C@@H](Oc1cc(-c2cnn(C3CCNCC3)c2)cnc1N)c1c(Cl)ccc(F)c1Cl [Crizotinib] (first compound max 10 µM, 7x7, partner max 10 µM) reaches -0.01 or more?
false

Here's the next entry for you.
Could you tell me if the measured Bliss excess of CN(CCO)CC[C@H](CSc1ccccc1)Nc1ccc(S(=O)(=O)NC(=O)c2ccc(N3CCC([C@@H](O)c4ccccc4-c4ccc(Cl)cc4)CC3)cc2)cc1S(=O)(=O)C(F)(F)F [AZD4320] + Cc1cc2ncnn2cc1Nc1ncc2c(n1)n(C1CCOCC1)c(=O)n2C [AZD7648] (first compound max 1 µM, 7x7, partner max 10 µM) reaches -0.01 or more?
true

---

System: NCI-H1838 (Lung Adenocarcinoma)
Assay: combination Emax (second highest fraction inhibited in the dose matrix, 72 h); higher = more inhibition; extreme values may be limits of the assay
Listing of entries alongside the reported combination Emax.
Quick one: just the number, no unit, thanks!

Below, each entry is followed by its recorded combination Emax result.
Provide one value: measured combination Emax of CC(=O)Nc1cccc(-n2c(=O)n(C3CC3)c(=O)c3c(Nc4ccc(I)cc4F)n(C)c(=O)c(C)c32)c1 [Trametinib] + Cc1nc(-c2cn3c(n2)-c2ccc(-c4cnn(C(C)(C)C(N)=O)c4)cc2OCC3)n(C(C)C)n1 [Taselisib] (first compound max 1 µM, 7x7, partner max 10 µM)
0.476

Provide one value: measured combination Emax of Cc1nc(Nc2ncc(C(=O)Nc3c(C)cccc3Cl)s2)cc(N2CCN(CCO)CC2)n1 [Dasatinib] + CC(=O)Nc1cccc(-n2c(=O)n(C3CC3)c(=O)c3c(Nc4ccc(I)cc4F)n(C)c(=O)c(C)c32)c1 [Trametinib] (first compound max 2 µM, 7x7, partner max 1 µM)
0.367

Others:
Provide one value: measured combination Emax of CS(=O)(=O)CCNCc1ccc(-c2ccc3ncnc(Nc4ccc(OCc5cccc(F)c5)c(Cl)c4)c3c2)o1 [Lapatinib] + C[C@@H](Oc1cc(-c2cnn(C3CCNCC3)c2)cnc1N)c1c(Cl)ccc(F)c1Cl [Crizotinib] (first compound max 10 µM, 7x7, partner max 10 µM)
0.436

---

Test system: NCI-H2122 (Lung Adenocarcinoma)
Test: combination Emax (second highest fraction inhibited in the dose matrix, 72 h); higher = more inhibition; extreme values may be limits of the assay
reportedEndpoint: combination Emax

Report the value of combination Emax obtained on NCI-H2122 (Lung Adenocarcinoma) for CN(CCO)CC[C@H](CSc1ccccc1)Nc1ccc(S(=O)(=O)NC(=O)c2ccc(N3CCC([C@@H](O)c4ccccc4-c4ccc(Cl)cc4)CC3)cc2)cc1S(=O)(=O)C(F)(F)F [AZD4320] + Cc1cc2ncnn2cc1Nc1ncc2c(n1)n(C1CCOCC1)c(=O)n2C [AZD7648] (first compound max 1 µM, 7x7, partner max 10 µM) .
0.273

Report the value of combination Emax obtained on NCI-H2122 (Lung Adenocarcinoma) for CC1(C)CCC(CN2CCN(c3ccc(C(=O)NS(=O)(=O)c4ccc(NCC5CCOCC5)c([N+](=O)[O-])c4)c(Oc4cnc5[nH]ccc5c4)c3)CC2)=C(c2ccc(Cl)cc2)C1 [Venetoclax] + C=CCn1c(=O)c2cnc(Nc3ccc(N4CCN(C)CC4)cc3)nc2n1-c1cccc(C(C)(C)O)n1 [AZD1775] (first compound max 1 µM, partner max 1 µM) .
0.98

---

System: MDA-MB-453 (Breast Carcinoma)
Assay: combination Emax (second highest fraction inhibited in the dose matrix, 72 h); higher = more inhibition; extreme values may be limits of the assay
Listing of entries alongside the reported combination Emax.

Provide one value: measured combination Emax of N#Cc1cnc(Nc2cc(NC[C@H]3CNCCO3)c(C(F)(F)F)cn2)cn1 [SRA737] + Nc1ccn([C@@H]2O[C@H](CO)[C@@H](O)C2(F)F)c(=O)n1 [Gemcitabine] (first compound max 10 µM, 7x7, partner max 0.3 µM)
0.542

Provide one value: measured combination Emax of Cc1c2c(nn1C)CSCc1cc(n(C)n1)CSc1cc(c3ccccc3c1)OCCCc1c(C(=O)O)n(C)c3c-2c(Cl)ccc13 [AZD5991] + C[C@@H](Nc1cc(F)cc(F)c1)c1cc(C(=O)N(C)C)cc2c(=O)cc(N3CCOCC3)oc12 [AZD8186] (first compound max 1 µM, 7x7, partner max 3 µM)
0.355

Provide one value: measured combination Emax of CN(CCO)CC[C@H](CSc1ccccc1)Nc1ccc(S(=O)(=O)NC(=O)c2ccc(N3CCC([C@@H](O)c4ccccc4-c4ccc(Cl)cc4)CC3)cc2)cc1S(=O)(=O)C(F)(F)F [AZD4320] + Nc1ccn([C@@H]2O[C@H](CO)[C@@H](O)C2(F)F)c(=O)n1 [Gemcitabine] (first compound max 1 µM, 7x7, partner max 0.3 µM)
0.731

Provide one value: measured combination Emax of Cn1cnc2c(F)c(Nc3ccc(Br)cc3Cl)c(C(=O)NOCCO)cc21 [Selumetinib] + C[C@@H]1COCCN1C2=NC(=NC(=C2)C3(CC3)[S@](=N)(=O)C)C4=C5C=CNC5=NC=C4 [AZD6738] (first compound max 10 µM, 7x7, partner max 10 µM)
0.684

Provide one value: measured combination Emax of CCN(CCO)CCCOc1ccc2c(Nc3cc(CC(=O)Nc4cccc(F)c4)[nH]n3)ncnc2c1 [AZD2811] + C[C@@H]1COCCN1C2=NC(=NC(=C2)C3(CC3)[S@](=N)(=O)C)C4=C5C=CNC5=NC=C4 [AZD6738] (first compound max 1 µM, 7x7, partner max 10 µM)
0.807

Alright, here's another compound for you.
Provide one value: measured combination Emax of COc1cccc(OCCCN)c1-c1cc(Nc2cnc(C#N)cn2)n[nH]1 [Prexasertib] + CCc1c2c(nc3ccc(O)cc13)-c1cc3c(c(=O)n1C2)COC(=O)[C@]3(O)CC [SN-38] (first compound max 1 µM, 7x7, partner max 0.3 µM)
0.929
